Assay remarks: ATG_PBREM_CIS: Attagene CIS-FACTORIAL HepG2 Assay for human Phenobarbital-responsive Enhancer Module (PBREM) (AID 2282955)
Test parameters: HepG2 PBREM cis-reporter, Attagene multiplexed transcription; actives raise or lower the signal
Calls of active or inactive are those of the source. Rule for the calls: active = hit-call score of the fitted dose curve at least 0.9, where 1 is the maximum; inactive = score below 0.9.
Outcome codes: 1 for active, 0 for inactive

1. CCNC(=O)NC(=O)C(C#N)=NOC | 0
2. Cc1ccc(N=CN(C)C=Nc2ccc(C)cc2C)c(C)c1 | 0
3. CCNP(=S)(OC)O/C(C)=C/C(=O)OC(C)C (configuration not stated) | 1
4. OC(c1ccc(Cl)cc1)(c1ccc(Cl)cc1)C(Cl)(Cl)Cl | 0
5. Nc1cnn(-c2ccccc2)c(=O)c1Cl | 0
6. CCN(CC)c1nc(C)cc(OP(=S)(OC)OC)n1 | 0
7. O=C(Nc1ccccc1-c1ccc(Cl)cc1)c1cccnc1Cl | 1

Every entry's value here was drawn from PubChem BioAssay (EPA / NIEHS).
